- Tested on: T-47D cells
- Protocol Details: Inhibition of cell proliferation in T-47D cells (CCK-8, 6 days)
- Type: cell-based
- Experimental Conditions: 6 days of treatment, Table 3
Give pIC50 for every item shown.
Numbers only, as −log10 of the molar value.

// worked examples, pIC50 included
[in] Given the molecule O=C1CCC(N2Cc3c(ccc4c3OCC43CCN(C4CCN(C5CN(c6ccc([C@@H]7c8ccc(O)cc8CC[C@@H]7c7ccccc7)cc6)C5)CC4)CC3)C2=O)C(=O)N1 (stereo partly drawn) , what is its reported pIC50?
[out] 7.57

[in] Given the molecule O=C1CCC(N2Cc3ccc4c(c3C2=O)OCC42CCN(C3CCN(C(=O)C4(F)CCN(c5ccc([C@@H]6c7ccc(O)cc7CC[C@@H]6c6ccccc6)cc5)CC4)CC3F)CC2)C(=O)N1 (stereo partly drawn) , what is its reported pIC50?
[out] 8.73

Attention now turns to another entry.
[in] Given the molecule N#CC1(CN2CCC3(CC2)COc2c3ccc3c2CN(C2CCC(=O)NC2=O)C3=O)CCN(C(=O)C2CCN(c3ccc([C@@H]4c5ccc(O)cc5CC[C@@H]4c4ccccc4)cc3)CC2)CC1 (stereo partly drawn) , what is its reported pIC50?
[out] 8.74

----------
- Target System: ERα (Homo sapiens)
- Sequence (P03372 whole entry): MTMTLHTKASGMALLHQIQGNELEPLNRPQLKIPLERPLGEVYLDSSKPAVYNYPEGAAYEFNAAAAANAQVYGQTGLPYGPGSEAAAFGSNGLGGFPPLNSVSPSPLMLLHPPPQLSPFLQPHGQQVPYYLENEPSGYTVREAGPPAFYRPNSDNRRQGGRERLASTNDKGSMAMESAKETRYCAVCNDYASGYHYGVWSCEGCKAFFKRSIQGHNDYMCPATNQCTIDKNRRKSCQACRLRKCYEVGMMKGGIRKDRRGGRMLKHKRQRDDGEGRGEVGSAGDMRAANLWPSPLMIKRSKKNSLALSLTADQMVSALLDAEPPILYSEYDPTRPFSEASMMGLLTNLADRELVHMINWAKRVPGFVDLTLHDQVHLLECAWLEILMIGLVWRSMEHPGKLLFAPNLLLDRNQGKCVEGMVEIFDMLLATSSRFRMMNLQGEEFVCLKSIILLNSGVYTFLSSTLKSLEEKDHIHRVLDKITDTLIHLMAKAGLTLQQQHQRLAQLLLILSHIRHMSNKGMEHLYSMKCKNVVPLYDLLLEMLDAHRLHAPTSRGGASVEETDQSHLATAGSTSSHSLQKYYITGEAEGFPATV
- Protocol Details: Degradation of ERα in MCF-7 cells (immunoblotting, 4 h)
- Assay type: cell-based
- Experimental Conditions: 1nM compound
Quantity: Degradation rate (%) of ERα in MCF-7 cells
Answers are plain numbers, in %.

// worked examples, Degradation rate (%) of ERα in MCF-7 cells included
[in] Given the compound O=C1CCC(N2Cc3c(ccc4c3OCC43CCN(C(=O)CN4CCC5(CC4)CCN(c4ccc([C@@H]6c7ccc(O)cc7CC[C@@H]6c6ccccc6)cc4)CC5)CC3)C2=O)C(=O)N1 (stereo partly drawn) , what is its reported Degradation rate (%) of ERα in MCF-7 cells?
[out] 52

[in] Given the compound CC1CN(C(=O)C2CCN(c3ccc(C4c5ccc(O)cc5CCC4c4ccccc4)cc3)CC2)CCC1N1CCC2(CC1)COc1c2ccc2c1CN(C1CCC(=O)NC1=O)C2=O (stereo not drawn) , what is its reported Degradation rate (%) of ERα in MCF-7 cells?
[out] 57

Attention now turns to another entry.
[in] Given the compound C[C@@H]1Cc2cc(O)ccc2C(c2c(F)cc(N3CCC(N4CCC(C(=O)N5CCC6(CC5)COc5c6ccc6c5CN(C5CCC(=O)NC5=O)C6=O)CC4)CC3)cc2F)N1CC(F)F (stereo partly drawn) , what is its reported Degradation rate (%) of ERα in MCF-7 cells?
[out] 46

----------
- Target System: ERα (Homo sapiens)
- Protocol Details: Degradation of ERα in MCF-7 cells (immunoblotting, 4 h)
- Type: cell-based
- Experimental Conditions: 1nM compound
Give Degradation rate (%) of ERα in MCF-7 cells for every item shown.
One number for each entry, in %.

[in] Given the compound CC1(CN2CCC3(CC2)COc2c3ccc3c2CN(C2CCC(=O)NC2=O)C3=O)CCN(C(=O)C2CCN(c3ccc([C@@H]4c5ccc(O)cc5CC[C@@H]4c4ccccc4)cc3)CC2)CC1 (stereo partly shown) , what is its reported Degradation rate (%) of ERα in MCF-7 cells?
[out] 10

[in] Given the compound C[C@H]1CN(C2CC3(CCN(c4ccc([C@@H]5c6ccc(O)cc6CC[C@@H]5c5ccccc5)cc4)CC3)C2)CC[C@H]1N1CCC2(CC1)COc1c2ccc2c1CN(C1CCC(=O)NC1=O)C2=O (stereo partly shown) , what is its reported Degradation rate (%) of ERα in MCF-7 cells?
[out] 20

[in] Given the compound O=C1CCC(N2C(=O)c3ccc4c(c3C2=O)OCC42CCN(C3CC4(C3)CN(c3ccc([C@@H]5c6ccc(O)cc6CC[C@@H]5c5ccccc5)cc3)C4)CC2)C(=O)N1 (stereo partly shown) , what is its reported Degradation rate (%) of ERα in MCF-7 cells?
[out] 9

Attention now turns to another entry.
[in] Given the compound O=C1CCC(N2C(=O)c3ccc4c(c3C2=O)OCC42CCN(C3CCC4(CC3)CN(c3ccc([C@@H]5c6ccc(O)cc6CC[C@@H]5c5ccccc5)cc3)C4)CC2)C(=O)N1 (stereo partly shown) , what is its reported Degradation rate (%) of ERα in MCF-7 cells?
[out] 4

----------
- Target System: ERα (Homo sapiens)
- Protocol Details: Degradation of ERα in T-47D cells (immunoblotting, 4 h)
- Format: cell-based
- Set-up: host or cells: T-47D
- Experimental Conditions: 10nM compound
Quantity: Degradation rate (%) of ERα in T-47D cells
One number for each entry, in %.

[in] Given the compound COC1(CN2CCC3(CC2)COc2c3ccc3c2CN(C2CCC(=O)NC2=O)C3=O)CCN(C(=O)C2CCN(c3ccc([C@@H]4c5ccc(O)cc5CC[C@@H]4c4ccccc4)cc3)CC2)CC1 (stereo partly drawn) , what is its reported Degradation rate (%) of ERα in T-47D cells?
[out] 84

Hi there! I need Degradation rate (%) of ERα in T-47D cells for each item below, if you can.
1. C[C@@H]1Cc2cc(O)ccc2C(c2c(F)cc(N3CCC4(CC3)CC(N3CCC(N5CCC6(CC5)COc5c6ccc6c5CN(C5CCC(=O)NC5=O)C6=O)[C@@H](F)C3)C4)cc2F)N1CC(F)F (stereo partly drawn)
2. O=C1CCC(N2Cc3cc4c(cc3C2=O)OC2(CC4)CN(CC3CCC4(CC3)CCN(c3ccc([C@@H]5c6ccc(O)cc6CC[C@@H]5c5ccccc5)cc3)CC4)C2)C(=O)N1 (stereo partly drawn)
3. O=C1CCC(N2Cc3ccc4c(c3C2=O)OC2(CC4)CCN(C3CCC4(CC3)CCN(c3ccc([C@@H]5c6ccc(O)cc6CC[C@@H]5c5ccccc5)cc3)CC4)CC2)C(=O)N1 (stereo partly drawn)
4. O=C1CCC(N2Cc3c(ccc4c3OCC43CCN(C(=O)C(=O)N4CCC5(CCN(c6ccc([C@@H]7c8ccc(O)cc8CC[C@@H]7c7ccccc7)cc6)CC5)C4)CC3)C2=O)C(=O)N1 (stereo partly drawn)
5. O=C1CCC(N2Cc3c(ccc4c3OCC43CCN(C(=O)C4CN(CC5CCN(c6ccc([C@@H]7c8ccc(O)cc8CC[C@@H]7c7ccccc7)cc6)CC5)C4)CC3)C2=O)C(=O)N1 (stereo partly drawn) [J9]
6. O=C1CCC(N2Cc3cc4c(cc3C2=O)CCC2(CN(C(=O)C3CCN(c5ccc([C@@H]6c7ccc(O)cc7CC[C@@H]6c6ccccc6)cc5)CC3)C2)O4)C(=O)N1 (stereo partly drawn)
7. O=C1CCC(N2C(=O)c3cc4c(cc3C2=O)OC2(CC4)CCN(CC3CCN(c4ccc(C5c6ccc(O)cc6CCC5c5ccccc5)cc4)CC3)CC2)C(=O)N1 (stereo not drawn)

[out]
[68, 35, -45, 82, 83, 53, -11]

Hi there! I need Degradation rate (%) of ERα in T-47D cells for each item below, if you can.
1. C[C@H]1CN(C2CC3(CCN(c4ccc([C@@H]5c6ccc(O)cc6CC[C@@H]5c5ccccc5)cc4)CC3)C2)CC[C@H]1N1CCC2(CC1)COc1c2ccc2c1CN(C1CCC(=O)NC1=O)C2=O (stereo partly drawn)
2. O=C1CCC(N2Cc3cc4c(cc3C2=O)CCC2(CN(C3CCN(C(=O)c5ccc([C@@H]6c7ccc(O)cc7CC[C@@H]6c6ccccc6)cc5)CC3)C2)O4)C(=O)N1 (stereo partly drawn)
3. CN(CC(=O)N1CCC2(CC1)COc1c2ccc2c1CN(C1CCC(=O)NC1=O)C2=O)CC1CCN(c2ccc([C@@H]3c4ccc(O)cc4CC[C@@H]3c3ccccc3)cc2)CC1 (stereo partly drawn)
4. CN(C[C@H]1CC[C@H](C(=O)N2CCC3(CC2)COc2c3ccc3c2CN(C2CCC(=O)NC2=O)C3=O)CC1)[C@H]1CCN(c2ccc([C@@H]3c4ccc(O)cc4CC[C@@H]3c3ccccc3)cc2)C[C@H]1F (stereo partly drawn)
5. O=C1CCC(N2C(=O)c3cc4c(cc3C2=O)OC2(CC4)CN(CC3CCC4(CC3)CN(c3ccc([C@@H]5c6ccc(O)cc6CC[C@@H]5c5ccccc5)cc3)C4)C2)C(=O)N1 (stereo partly drawn)

[out]
1. 64
2. 36
3. 88
4. 82
5. -17

Hi there! I need Degradation rate (%) of ERα in T-47D cells for each item below, if you can.
1. O=C1CCC(N2Cc3c(ccc4c3OCC43CCN(c4ccc(C(=O)N5CCN(c6ccc([C@@H]7c8ccc(O)cc8CC[C@@H]7c7ccccc7)cc6)CC5)nc4)CC3)C2=O)C(=O)N1 (stereo partly drawn)
2. CC1CC(N2CCC3(CC2)COc2c3ccc3c2CN(C2CCC(=O)NC2=O)C3=O)CCN1C1CC2(CCN(c3ccc(C4c5ccc(O)cc5CCC4c4ccccc4)cc3)CC2)C1 (stereo not drawn)
3. O=C1CCC(N2Cc3cc4c(cc3C2=O)OC2(CC4)CN(C3CCC(N4CCN(c5ccc([C@@H]6c7ccc(O)cc7CC[C@@H]6c6ccccc6)cc5)CC4)CC3)C2)C(=O)N1 (stereo partly drawn)
4. O=C1CCC(N2Cc3c(ccc4c3OCC43CCN(C(=O)c4ccc(CN5CCN(c6ccc([C@@H]7c8ccc(O)cc8CC[C@@H]7c7ccccc7)cc6)CC5)cn4)CC3)C2=O)C(=O)N1 (stereo partly drawn)
5. O=C1CCC(N2C(=O)c3cc4c(cc3C2=O)C2(CCN(CC3CCN(c5ccc(C6c7ccc(O)cc7CCC6c6ccccc6)cc5)C3)CC2)CO4)C(=O)N1 (stereo not drawn)

[out]
63
79
60
74
-15

Attribution: patent EP4656642A1
